These entries and their values trace back to the supplement of paper PMC9694430.

Test system: LOC_OS03G04050-cb001
method-description: thermal shift delta Tm vs DMSO control; higher = stronger stabilization (binding);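 note: purified Escherichia coli-expressed rice kinase domain construct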
condition-context: 12.5 µM; protein concentration 2 µM
measured-property: thermal shift delta Tm (°C)
One number for each entry, in °C.

Answered examples (4):
CCN(CC)CCNC(=O)c1c(C)[nH]c(/C=C2\C(=O)Nc3ccc(-c4csc(-c5ccccc5)n4)cc32)c1C = 0.42
COC1(c2sc3c(N4CCOCC4)nc(-c4cnc(N)nc4)nc3c2C)COC1 = -0.01
COc1ccc(S(=O)(=O)N(C(C)=O)c2ccccc2/C=C/c2cc[n+]([O-])cc2)cc1 = 0.19
O=c1sn(-c2cccc3ccccc23)c(=O)n1Cc1ccccc1 = 0.13

Now for another entry.
Reported thermal shift delta Tm for LOC_OS03G04050-cb001, given O=C(O)CCC(=O)Nc1ccc(Br)cn1 ?
0.3

* * *

Tested on: LOC_OS05G43570-cb004
method-description: thermal shift delta Tm vs DMSO control; higher = stronger stabilization (binding)
condition-context: 12.5 µM; protein concentration 2 µM
Please note: y applies when thermal shift delta Tm is 0.4 °C or greater, and n applies otherwise.

# bool: thermal shift delta Tm of Cc1ccccc1-n1c(Cn2nc(-c3cccc(O)c3)c3c(N)ncnc32)nc2cccc(C)c2c1=O >= 0.4 °C
n

Note, next up: COc1cc2nccc(Oc3ccc(NC(=O)NC4CC4)c(Cl)c3)c2cc1C(N)=O [Lenvatinib (E7080)]
n

Note, next up: Cc1ccc(S(=O)(=O)/C=C/C#N)cc1
n

Note, next up: O=c1cc(N2CCOCC2)oc2c1ccc1ccccc12
y

* * *

System: LOC_OS05G07850-cb002
method-description: thermal shift delta Tm vs DMSO control; higher = stronger stabilization (binding)
condition-context: 12.5 µM; protein concentration 2 µM
Please note: true applies when thermal shift delta Tm is 2 °C or greater, and false applies otherwise.

Previously resolved entries follow.
CC(C)c1cnn2c(NCc3ccccc3)cc(NCCCCCCN)nc12 = false
C[C@@H]1COCCN1c1cc(C2([S@](C)(=N)=O)CC2)nc(-c2cc[nH]c3nccc2-3)n1 = true
N#C/C(=C\c1ccc(O)c(O)c1)C(=O)NCc1ccccc1 = false
C[C@]1(O)C[C@@H](c2nc(-c3ccc4ccc(-c5ccccc5)nc4c3)c3c(N)nccn32)C1 = false
Cc1cc(CN2CCN(c3c(Br)cnc4nc(-c5ccc(N6CCN(C)CC6)cc5)[nH]c34)CC2)no1 = true
Cc1cc(Nc2cc(N3CCN(C)CC3)nc(/C=C/c3ccccc3)n2)n[nH]1 [ENMD-2076 L-(+)-Tartaric acid] = true
CCNC(=O)Nc1ccc(-c2nc3c(c(N4CCOC[C@@H]4C)n2)CCN(C2COC2)C3)cc1 = false
C[C@H]1CNC(=O)c2cnn3ccc(nc23)N[C@H](C)c2cc(F)ccc2O1 = true

Kindly consider the entry below.
# bool: thermal shift delta Tm of O=C(NCCO)c1cccc(-c2cc(Nc3ccc(OC(F)(F)F)cc3)ncn2)c1 >= 2 °C
false

* * *

For each of the compounds below, state its thermal shift delta Tm.
Test system: LOC_OS02G14120-cb001
method-description: thermal shift delta Tm vs DMSO control; higher = stronger stabilization (binding)
condition-context: 12.5 µM; protein concentration 2 µM
Give bare numbers, in °C.

Answered examples (6):
Cc1ccc(NC(=O)c2cccc(C(C)(C)C#N)c2)cc1Nc1ccc2ncn(C)c(=O)c2c1 = 1.71
CCCCCCCCCCCCCCCCOP(=O)([O-])OCC[N+](C)(C)C = -6.59
C=CC(=O)Nc1cccc(Oc2nc(Nc3ccc(N4CCN(C)CC4)cc3)nc3ccsc23)c1 = 3.63
Cc1cc(Nc2cc(N3CCN(C)CC3)nc(/C=C/c3ccccc3)n2)n[nH]1 = 7.14
CCCNC(=O)c1cn2ncnc(Nc3cc(C(=O)NC4CC4)ccc3C)c2c1C = 0.54
COC(=O)Nc1ccc(-c2nc(N3CCOCC3)c3cnn(C4CCN(C(=O)OC)CC4)c3n2)cc1 = -0.24

Need thermal shift delta Tm for each of these compounds.
1. CC(C)(C)c1ccc(S(=O)(=O)/C=C/C#N)cc1
2. O=C(Nc1nc2cccc(-c3ccc(CN4CCS(=O)(=O)CC4)cc3)n2n1)C1CC1
3. Cc1[nH]nc2ccc(-c3cncc(OC[C@@H](N)Cc4ccccc4)c3)cc12

1: -0.46; 2: 2.91; 3: 3.18
